Collected TD50 values appear next to each entry.
Tested on: rodent lifetime carcinogenesis bioassay, tumor incidence TD50
assay.method.text: carcinogenic potency in animals, long-term in vivo studies, CPDB compilation (AID 1745844)
assay.setup: mouse; strain B6C3F1; males; in drinking water; site: lung; lesion: alveolar/bronchiolar adenoma + alveolar/bronchiolar carcinoma; dosed 104 weeks; study length 104 weeks
quantity.kind: TD50 (mg/kg/day)

>>> quantitative_result("O=NO")
990
>>> quantitative_result("CC(CO)OC(C)CO (configuration not stated) (tested in a mixture with another compound)")
18100

###

Test system: rodent lifetime carcinogenesis bioassay, tumor incidence TD50
assay.method.text: carcinogenic potency in animals, long-term in vivo studies, CPDB compilation (AID 1745844)
assay.setup: mouse; strain B6C3F1; males; inhaled; site: all sites; lesion: malignant lymphoma, lymphocytic type; dosed 82 weeks; study length 104 weeks
quantity.kind: TD50

>>> result("C=CC=C")
"157 mg/kg/day"
